Taken from the supplement of paper PMC10126150.

# Test system: ATP;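 note: ATP exposure 15 min at 22 °C before imaging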
# ASSAY PROCEDURE: switch fluorescence ratio, 500 uM ATP over buffer (Cy3 cluster intensity, sum of 5 cycles each) (fold (ratio)); higher = stronger signal-on switching upon ATP binding; sequences stand for … in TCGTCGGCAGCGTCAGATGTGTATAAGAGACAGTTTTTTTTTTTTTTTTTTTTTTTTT…TC
# CONDITION: aptamer strand: ATP DNA aptamer (quencher-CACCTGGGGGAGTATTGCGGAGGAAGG + anchor), 100 nM annealed; ATP concentration: 500 uM
Can you tell me switch fluorescence ratio for the items I'm about to list?

>>> result("TGGGAGTTTT")
1.02

Report switch fluorescence ratio for each item below.
1. AGGTAGTTTA
2. TTTGGTAAGC
3. GGGTTGGAGT
4. TTTCAGAGTT
5. TTTCGTGGGA
6. TATTAGGCGC
7. TGGGTGGAGA

Reply:
1. 1.02
2. 1.02
3. 0.997
4. 0.993
5. 0.999
6. 0.982
7. 1.02

Report switch fluorescence ratio for each item below.
1. AGAGGCGTTA
2. ATTTTGTCCA
3. TGTGTGTATG
4. GAAGGCCTGT
5. ATGGGGTGTG
6. TTGCGGTGTG
7. GAGAGATTAT

Reply:
[1.01, 1.02, 0.999, 0.975, 1, 1, 0.979]

Report switch fluorescence ratio for each item below.
1. GGAAAAGAGC
2. GTTGCCGAGT
3. TATATTATGA
4. GAATGGGTAA
5. ATCGGTGGGG
6. ATTTATTTCT
7. TTTGACGGGG
8. AGATGGGGGT

Reply:
0.991
1.02
0.999
1.02
0.963
1.03
1.04
1.02
